Procedure summary: folding stability dG unfold (combined trypsin and chymotrypsin); higher = more stable
Field: folding stability dG unfold. Provide a value for each of the sequences that follow.
Answers are plain numbers, in kcal/mol.

Entry sequence | Reported result
SAGKMVKITITGPADKIKELLKKLFPNAEVEVKKVNGKLVFYFKPGEEVIEIEITDKDGNKLTIKIEKVSAG [r5_123_TrROS_Hall] | 3.48
SAGGSEEVEEEPPVVVTVRLTIELTLADGSKVRVEVELVRTADGRLLLKIRVVNEDTGEVYEFTFPSAGGSA [r2_484_TrROS_Hall] | 4.6
SKKVTIMIMIRRRDPEDGKYRPIPPEFILEMVRRARKKGKKVKITFMNPDNPWAKRLAKRAKEEGIKIEWSA [r9_468_TrROS] | 2.1
SAGGSAKIEITIFIPGMSEEEVKKLAEELAEELRKKGLSDEEIKEIKIKVYKVPVYKTEDGKLVKVSAGGSA [r15_684_TrROS_Hall] | 1.44
SAGGKKKVIEIKIEIKVPKEELKNMTKEEIAELLKKELEKKGIKIKKIEIVEIEIDGDTVTITIRIELSAGG [r13_432_TrROS_Hall] | 2.72
SDYMPVHKMESDGKRNPNGQHEYEPKMEPVWVPVPPPPPRIRIPPEWREKLKELAEKLGHPITDDDINKISA [r9_487_TrROS] | -0.13

Provide each entry's folding stability dG unfold from the list below.
1. SAGGSAGGSALKNAPGPDPALLKPRPVLVIPIPKDIPLEEAEALAEIFRKLYPDVPVVLDVEGGSAGGSAGG [r6_299_TrMRF]
2. SAGGSAGGSEKVEIEREFKLPDPNGKPFRFTVEIEVEPRNDGLKIEITEVEGPWMRDAIKKLLSAGGSAGGS [r12_743_TrROS]

Result:
[0.971, 0.907]

Below are 4 sequences. Give each one its folding stability dG unfold.
1. SAGGSAGGSAGKVTLVFKTKEDALNAIKELAEKEGLKVKIVKIEELPNGLIKITVEIEKPSAGGSAGGSAGG [r11_304_TrROS_Hall]
2. SAGGSAMPDDPLVLRANIPFVVVGPDGRPRLFRREILVPFASEEEAERFRRELEALGAEVEPVARASAGGSA [r15_117_TrMRF]
3. SAGGSAGGSAIMINIDLEYDPGDGTIELEYKISFMDPGGKPMGMITIRLEIRIPPPEPDPDDKSAGGSAGGS [r12_254_TrROS]
4. SPLVLNPEGRTLTITLTVTVDPDVDRQVVPVLVVDEGAPRTFTFEVPKGLAGPVTFTLEIDLPPGAYVEVSA [r9_973_TrMRF]

Result:
1. 4.22
2. 1.93
3. 3.37
4. 2.18
